experimental details: Water content by thermogravimetric analysis (TGA)
Type: physicochemical
settings: TGA, solvent lost

[
  {
    "compound": "FC(F)(F)c1cccc(C2=CCN(CCc3ccc4ccncc4c3)CC2)c1.O=S(=O)(O)c1ccccc1.O=S(=O)(O)c1ccccc1 [Dibesylate]",
    "Nature of the solvent": "Water"
  },
  {
    "compound": "FC(F)(F)c1cccc(C2=CCN(CCc3ccc4ccncc4c3)CC2)c1.O=S(=O)(O)c1ccccc1 [Besylate]",
    "Nature of the solvent": "Water"
  },
  {
    "compound": "Cl.Cl.FC(F)(F)c1cccc(C2=CCN(CCc3ccc4ccncc4c3)CC2)c1 [Dihydrochloride]",
    "Nature of the solvent": "Water"
  }
]

---

Parameter: Purity after 14 days at 80° C.. Scope: all listed entries.
experimental details: Chemical stability of salts exposed to heat and moisture, measured by HPLC
Format: physicochemical
settings: 14 days at 80° C.
Express your answer in %, writing the number without its unit.

Some solved cases for reference:
[
  {
    "compound": "FC(F)(F)c1cccc(C2=CCN(CCc3ccc4ccncc4c3)CC2)c1.O=S(=O)(O)O.O=S(=O)(O)O [Dihydrogensulfate]",
    "property": "Purity after 14 days at 80° C.",
    "assay value": 91.9
  },
  {
    "compound": "FC(F)(F)c1cccc(C2=CCN(CCc3ccc4ccncc4c3)CC2)c1.O=S(=O)(O)c1ccccc1.O=S(=O)(O)c1ccccc1 [Dibesylate]",
    "property": "Purity after 14 days at 80° C.",
    "assay value": 97.5
  },
  {
    "compound": "Cl.Cl.FC(F)(F)c1cccc(C2=CCN(CCc3ccc4ccncc4c3)CC2)c1 [Dihydrochloride]",
    "property": "Purity after 14 days at 80° C.",
    "assay value": 95.6
  }
]

Give me measured Purity after 14 days at 80° C., please, for this compound: FC(F)(F)c1cccc(C2=CCN(CCc3ccc4ccncc4c3)CC2)c1.O=S(=O)(O)c1ccccc1 [Besylate]
97.9

---

experimental details: Chemical stability of salts exposed to heat and moisture, measured by HPLC
Type: physicochemical
settings: 14 days at 80° C. and 80% relative humidity
Listed here: items and their measured Purity after 14 days at 80° C./80% RH.
Numeric answer only, unit % assumed.

Specify reported Purity after 14 days at 80° C./80% RH for the molecule shown: Cl.Cl.FC(F)(F)c1cccc(C2=CCN(CCc3ccc4ccncc4c3)CC2)c1 [Dihydrochloride]
92.9

Tell me its Purity after 14 days at 80° C./80% RH given FC(F)(F)c1cccc(C2=CCN(CCc3ccc4ccncc4c3)CC2)c1.O=S(=O)(O)O.O=S(=O)(O)O [Dihydrogensulfate] as the entry.
88.5

Look up Purity after 14 days at 80° C./80% RH of FC(F)(F)c1cccc(C2=CCN(CCc3ccc4ccncc4c3)CC2)c1.O=S(=O)(O)c1ccccc1 [Besylate] and report it.
96.5

Determine its reported Purity after 14 days at 80° C./80% RH: FC(F)(F)c1cccc(C2=CCN(CCc3ccc4ccncc4c3)CC2)c1.O=S(=O)(O)c1ccccc1.O=S(=O)(O)c1ccccc1 [Dibesylate]
96.2

---

Overview of reported Loss in weight across a group of molecules:
experimental details: Water content by thermogravimetric analysis (TGA)
Assay type: physicochemical
settings: TGA, from 25° C., 10° C./min, nitrogen purge
Description: The water content of the five above salts was studied by thermogravimetric analysis (TGA). The TGA tests are carried out in a TA8000 device equipped with a TGA850 module. The temperature calibrations are carried out conventionally using the melting of indium. The experimental parameters employed were: Final temperature: 250° C. for the dihydrochloride, 300° C. for the fumarate, 200° C. or 250° C. for the dihydrogensulfate, 250° C. or 300° C. for the dibesylate and the besylate. […]
State just the number; it will be interpreted in % weight/weight.

Worked set:
[
  {
    "molecule": "FC(F)(F)c1cccc(C2=CCN(CCc3ccc4ccncc4c3)CC2)c1.O=S(=O)(O)c1ccccc1.O=S(=O)(O)c1ccccc1 [Dibesylate]",
    "uom": "% weight/weight",
    "Loss in weight": 0.72
  },
  {
    "molecule": "Cl.Cl.FC(F)(F)c1cccc(C2=CCN(CCc3ccc4ccncc4c3)CC2)c1 [Dihydrochloride]",
    "uom": "% weight/weight",
    "Loss in weight": 11.0
  },
  {
    "molecule": "FC(F)(F)c1cccc(C2=CCN(CCc3ccc4ccncc4c3)CC2)c1.O=S(=O)(O)O.O=S(=O)(O)O [Dihydrogensulfate]",
    "uom": "% weight/weight",
    "Loss in weight": 2.06
  }
]

We now examine a further molecule.
# return recorded Loss in weight for entry FC(F)(F)c1cccc(C2=CCN(CCc3ccc4ccncc4c3)CC2)c1.O=S(=O)(O)c1ccccc1 [Besylate]
0.11
